target: T1, human CGRP receptor (human CRLR / human RAMP1 heterodimer) (human, UniProt Q16602 23-461; O60894 27-148); assay: yeast-displayed Fab, FACS, detergent-solubilized lysate of human CGRP receptor-expressing cells vs blank cells
T1 construct: Full-length receptor: endogenous on SK-N-MC (HTB-10) cells in the cAMP assay; also called hCGRP receptor on SK-N-MC (HTB-10) cells; Human CGRP Receptor/AMID detergent-solubilized cell lysate
T1 sequence (Q16602 23-461 limits assumed, chain 1 of 2): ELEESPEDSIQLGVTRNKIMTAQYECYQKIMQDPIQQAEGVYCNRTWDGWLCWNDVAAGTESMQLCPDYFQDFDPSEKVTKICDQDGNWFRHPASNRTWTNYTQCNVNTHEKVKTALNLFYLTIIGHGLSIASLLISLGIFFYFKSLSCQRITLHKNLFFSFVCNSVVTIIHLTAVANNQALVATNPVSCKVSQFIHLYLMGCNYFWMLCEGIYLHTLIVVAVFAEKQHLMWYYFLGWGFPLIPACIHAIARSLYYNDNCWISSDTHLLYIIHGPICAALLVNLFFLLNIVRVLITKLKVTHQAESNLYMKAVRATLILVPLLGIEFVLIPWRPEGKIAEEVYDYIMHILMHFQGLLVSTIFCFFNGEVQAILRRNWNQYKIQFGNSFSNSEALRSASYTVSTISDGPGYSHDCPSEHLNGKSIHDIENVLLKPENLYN
T1 sequence (O60894 27-148 limits assumed, chain 2 of 2): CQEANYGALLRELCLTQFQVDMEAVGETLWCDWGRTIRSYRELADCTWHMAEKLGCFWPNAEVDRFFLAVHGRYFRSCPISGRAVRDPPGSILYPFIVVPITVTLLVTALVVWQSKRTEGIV
measured_parameter: Mutant vs. 4E4.2 Parent Specific Binding Ratio (fold)
All answers are understood in fold, so give the number only.

Please report the recorded Mutant vs. 4E4.2 Parent Specific Binding Ratio for anti-CGRP receptor variant 01, yeast-displayed Fab (Fab, V domains shown, also called Variant Ab ID 01) VH: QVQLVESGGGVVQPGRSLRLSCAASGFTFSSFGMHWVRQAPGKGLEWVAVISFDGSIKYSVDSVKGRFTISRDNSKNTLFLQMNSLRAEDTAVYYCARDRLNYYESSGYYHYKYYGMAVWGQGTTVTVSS VL: QSVLTQPPSVSAAPGQKVTISCSGSYSNIGRYSVSWYQQLPGTAPKLLIYDNNKRPSGIPDRFSGSKSGTSATLGITGLQTGDEADYYCGTWDSRLSAVVFGGGTKLTVLG .
3.2

Please report the recorded Mutant vs. 4E4.2 Parent Specific Binding Ratio for anti-CGRP receptor variant 13, yeast-displayed Fab (Fab, V domains shown, also called Variant Ab ID 13) VH: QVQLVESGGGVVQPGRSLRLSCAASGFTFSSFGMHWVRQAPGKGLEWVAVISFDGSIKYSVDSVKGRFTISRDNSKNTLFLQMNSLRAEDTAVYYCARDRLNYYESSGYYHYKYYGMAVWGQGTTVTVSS VL: QSVLTQPPSVSAAPGQKVTISCSGSRSNIGRRTVSWYQQLPGTAPKLLIYDNNKRPSGIPDRFSGSKSGTSATLGITGLQTGDEADYYCGTWDSRLSAVVFGGGTKLTVLG .
1.8

Please report the recorded Mutant vs. 4E4.2 Parent Specific Binding Ratio for anti-CGRP receptor variant 09, yeast-displayed Fab (Fab, V domains shown, also called Variant Ab ID 09) VH: QVQLVESGGGVVQPGRSLRLSCAASGFTFSSFGMHWVRQAPGKGLEWVAVISFAGEIDYYVDSVKGRFTISRDNSKNTLFLQMNSLRAEDTAVYYCARDRLNYYESSGYYHYKYYGMAVWGQGTTVTVSS VL: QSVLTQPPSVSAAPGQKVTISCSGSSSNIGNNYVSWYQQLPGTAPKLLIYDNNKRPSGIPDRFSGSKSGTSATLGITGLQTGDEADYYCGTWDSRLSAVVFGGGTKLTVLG .
1.3
